Measured viability index of individual entries
# Test system: Plasmodium falciparum NF54 stage V gametocytes
# experimental-protocol: viability index relative to DMSO control (fraction); higher = less gametocyte killing
# stated-conditions: 2.5 µM, library set: Broad Institute DOS, incubation time: 72 h
In all, about 9,900 compounds were measured (“viability index relative to DMSO control”: median about 1, lowest 2% from about 0.85 on). What follows is part of a selection rich in the lowest values, with near analogues and random picks from the rest.

line-notation	viability index
COc1ccc2c3c([C@@H](CO)N(CC4CC4)C[C@]33CN(C3)C(=O)c3ccc4OCOc4c3)n(C)c2c1	1.02
COc1ccc2c3c([C@@H](CO)N(C[C@]33CCN(CC3)C(=O)c3ccc4OCOc4c3)C(=O)Nc3ccc(F)cc3)n(C)c2c1	0.967
O=C(NCC[C@H]1CC[C@@H](NC(=O)c2ccncc2)[C@H](CO)O1)Nc1ccc(Cl)cc1	1.17
COc1ccc(cc1)S(=O)(=O)N1C[C@@]2(C1)CN([C@H](CO)c1c2c2ccc(OC)cc2n1C)C(=O)CN(C)C	0.841

* * *

Measured viability index of individual entries
# Test system: Plasmodium falciparum NF54 stage V gametocytes
# experimental-protocol: viability index relative to DMSO control (fraction); higher = less gametocyte killing
# stated-conditions: 2.5 µM, library set: Broad Institute DOS, incubation time: 72 h
The full ranking holds about 9,900 compounds; the median of “viability index relative to DMSO control” is about 1, and the lowest 2% start at about 0.85. What follows is part of a selection rich in the lowest values, with near analogues and random picks from the rest.
property-measured: viability index

line-notation	reported-measurement
O=S(=O)(c1ccccc1)N1CCCCN2[C@@H](CO)[C@@H](c3ccc(C#CC4CCCC4)cc3)[C@@H]2C1	0.843
NCC[C@H]1CC[C@@H](NC(=O)Cc2ccncc2)[C@H](CO)O1	1.09
CN1C[C@H]2[C@@H](c3ccccc31)[C@H](CO)N2Cc1ccccc1Cl	1.03
CCN(C[C@H]1N[C@H](CO)[C@@H]1c1ccccc1)C(=O)c1ccncc1	1
Cc1ccc(S(=O)(=O)Nc2ccc3c(c2)C(=O)N([C@@H](C)CO)C[C@@H](C)[C@@H](CN(C)Cc2ccc(C(F)(F)F)cc2)O3)cc1	1.04
C[C@H]1CN([C@@H](C)CO)C(=O)c2cc(NS(=O)(=O)c3cn(C)cn3)ccc2O[C@@H]1CN(C)C(=O)Nc1cccc2ccccc12	0.954
O=C(Nc1ccc(F)cc1)N1CC(=O)N2[C@@H](CO)[C@H](c3ccc(C#Cc4cccnc4)cc3)[C@@H]2C1	1.11
O=C(Nc1cccc(F)c1)N1CCCCN2[C@H](CO)[C@@H](c3ccc(C#Cc4cccnc4)cc3)[C@H]2C1	0.844

* * *

# System: Plasmodium falciparum NF54 stage V gametocytes
# experimental-protocol: viability index relative to DMSO control (fraction); higher = less gametocyte killing
# stated-conditions: 2.5 µM, library set: Broad Institute DOS, incubation time: 72 h
The full ranking holds about 9,900 compounds; the median of “viability index relative to DMSO control” is about 1, and the lowest 2% start at about 0.85. This is one part of a sample in which the lowest values are shown more often than they occur.
Measured viability index of individual entries

line-notation	assayed-system	viability index
COc1ccc2c3c([C@H](CO)N(C[C@]33CCN(CC3)C(=O)Nc3ccc(F)cc3F)C(=O)Nc3ccc(F)cc3)n(C)c2c1	Plasmodium falciparum NF54 stage V gametocytes	1.04
COc1ccc(S(=O)(=O)N(C)C[C@@H]2Oc3c(NC(=O)c4nc5ccccc5s4)cccc3C(=O)N([C@@H](C)CO)C[C@H]2C)cc1	Plasmodium falciparum NF54 stage V gametocytes	0.979
CC(C)NC(=O)Nc1cccc2c1O[C@@H](CN(C)C(=O)Nc1ccccc1)[C@H](C)CN([C@H](C)CO)C2=O	Plasmodium falciparum NF54 stage V gametocytes	1.05
O=C(C[C@H]1CC[C@H]2NC[C@@H](O)COC[C@@H]2O1)N1CCc2ccccc2C1	Plasmodium falciparum NF54 stage V gametocytes	1.03
C[C@@H]1C/C=C/C[C@H](c2cccc(Cl)c2)NC(=O)[C@@H](Cc2ccccc2)N(C)C(=O)c2ccccc2O1.C[C@@H]1C/C=C\C[C@H](c2cccc(Cl)c2)NC(=O)[C@@H](Cc2ccccc2)N(C)C(=O)c2ccccc2O1	Plasmodium falciparum NF54 stage V gametocytes	0.952
C[C@@H]1C/C=C/C[C@@H](c2cccc(Cl)c2)NC(=O)[C@@H](Cc2ccccc2)N(C)C(=O)c2ccccc2O1.C[C@@H]1C/C=C\C[C@@H](c2cccc(Cl)c2)NC(=O)[C@@H](Cc2ccccc2)N(C)C(=O)c2ccccc2O1	Plasmodium falciparum NF54 stage V gametocytes	0.812
